Molecular target: human TLR7 (Homo sapiens)
Sequence (Q9NYK1 27-1049): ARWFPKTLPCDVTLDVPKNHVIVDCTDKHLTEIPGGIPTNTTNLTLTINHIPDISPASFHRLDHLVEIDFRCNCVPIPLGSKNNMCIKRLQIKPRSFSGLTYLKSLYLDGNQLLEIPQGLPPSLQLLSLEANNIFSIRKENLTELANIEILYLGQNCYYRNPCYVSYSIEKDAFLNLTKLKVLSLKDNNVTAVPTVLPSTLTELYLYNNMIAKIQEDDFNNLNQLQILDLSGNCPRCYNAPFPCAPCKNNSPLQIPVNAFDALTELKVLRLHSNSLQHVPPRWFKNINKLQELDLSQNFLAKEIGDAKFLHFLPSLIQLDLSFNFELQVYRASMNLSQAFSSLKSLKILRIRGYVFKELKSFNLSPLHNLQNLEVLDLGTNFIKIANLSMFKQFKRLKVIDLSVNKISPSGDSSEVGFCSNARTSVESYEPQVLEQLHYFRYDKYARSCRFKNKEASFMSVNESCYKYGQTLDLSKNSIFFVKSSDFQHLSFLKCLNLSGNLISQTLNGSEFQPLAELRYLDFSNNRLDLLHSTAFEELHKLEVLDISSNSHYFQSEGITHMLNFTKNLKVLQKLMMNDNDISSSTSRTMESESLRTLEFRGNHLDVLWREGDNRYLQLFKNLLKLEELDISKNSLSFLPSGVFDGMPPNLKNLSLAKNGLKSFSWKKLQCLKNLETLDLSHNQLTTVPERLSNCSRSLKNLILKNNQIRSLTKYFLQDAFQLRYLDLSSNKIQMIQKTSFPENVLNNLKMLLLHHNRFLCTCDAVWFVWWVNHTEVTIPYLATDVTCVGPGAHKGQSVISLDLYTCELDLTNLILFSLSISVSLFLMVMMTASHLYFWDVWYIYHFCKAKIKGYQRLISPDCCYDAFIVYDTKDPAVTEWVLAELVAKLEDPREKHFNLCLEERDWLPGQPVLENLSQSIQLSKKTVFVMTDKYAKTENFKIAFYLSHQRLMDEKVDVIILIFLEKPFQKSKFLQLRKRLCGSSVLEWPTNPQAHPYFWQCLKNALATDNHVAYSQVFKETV
Assay: TLR7 inhibition reporter assay (HEK-Blue cells, SEAP reporter)
Settings: HEK-Blue cells overexpressing human TLR7; stimulated with gardiquimod 7.5 μM; SEAP read after 22 hour; dose range 0.05 nM-50 μM
Experimental: HEK-Blue™-cells (Invivogen) overexpressing human TLR7, TLR8 or TLR9 receptors were used for screening inhibitors of these receptors using an inducible SEAP (secreted embryonic alkaline phosphatase) reporter gene under the control of the IFN-β minimal promoter fused to five NF-κB and AP-1-binding sites. […] The percent inhibition is determined as the % reduction in the HEK-Blue signal present in wells treated with agonist plus DMSO alone compared to wells treated with a known inhibitor.
READOUT KIND: pIC50
# log scale: pIC50 equals minus log10 of the concentration in mol/L

// worked examples, pIC50 included
INSERT INTO measurements (compound_structure, test_value) VALUES
  ('CC(C)N1CCN(c2ccc(-c3ccc4[nH]c(=O)c(-c5ccc(S(C)(=O)=O)cc5)cc4c3)cc2)CC1', 5.33),
  ('CC(C)N1CCC(c2ccc(-c3ccc4c(c3)cc(-c3ccc(S(C)(=O)=O)cc3)c(=O)n4CC(C)(C)O)cc2)CC1', 5.30),
  ('CCc1c(-c2ccc(S(C)(=O)=O)cc2)c(=O)[nH]c2ccc(C3CCN(C4CCN(C(C)C)CC4)CC3)cc12', 5.00);

Provide only the value of recorded pIC50 for CC(C)N1CCN(c2ccc(-c3ccc4[nH]c(=O)c(-c5c(F)cc(F)cc5F)cc4c3)cc2)CC1
5.32

Provide only the value of recorded pIC50 for CC(C)N1CCN(c2ccc(-c3ccc4[nH]c(=O)c(-c5ccccn5)cc4c3)cc2)CC1
5.42

Provide only the value of recorded pIC50 for CCc1c(-c2ccc(OC)c(OC)c2)c(=O)[nH]c2ccc(C3CCN(C4CCN(C(C)C)CC4)CC3)cc12
5.55

====

A collection of molecules and their measured IC50
biological target: human TLR9 (Homo sapiens); assay: TLR9 inhibition reporter assay (HEK-Blue cells, SEAP reporter); details: HEK-Blue cells overexpressing human TLR9; stimulated with ODN2006 5 nM; SEAP read after 22 hour; dose range 0.05 nM-50 μM
Sequence (Q9NR96 26-1032): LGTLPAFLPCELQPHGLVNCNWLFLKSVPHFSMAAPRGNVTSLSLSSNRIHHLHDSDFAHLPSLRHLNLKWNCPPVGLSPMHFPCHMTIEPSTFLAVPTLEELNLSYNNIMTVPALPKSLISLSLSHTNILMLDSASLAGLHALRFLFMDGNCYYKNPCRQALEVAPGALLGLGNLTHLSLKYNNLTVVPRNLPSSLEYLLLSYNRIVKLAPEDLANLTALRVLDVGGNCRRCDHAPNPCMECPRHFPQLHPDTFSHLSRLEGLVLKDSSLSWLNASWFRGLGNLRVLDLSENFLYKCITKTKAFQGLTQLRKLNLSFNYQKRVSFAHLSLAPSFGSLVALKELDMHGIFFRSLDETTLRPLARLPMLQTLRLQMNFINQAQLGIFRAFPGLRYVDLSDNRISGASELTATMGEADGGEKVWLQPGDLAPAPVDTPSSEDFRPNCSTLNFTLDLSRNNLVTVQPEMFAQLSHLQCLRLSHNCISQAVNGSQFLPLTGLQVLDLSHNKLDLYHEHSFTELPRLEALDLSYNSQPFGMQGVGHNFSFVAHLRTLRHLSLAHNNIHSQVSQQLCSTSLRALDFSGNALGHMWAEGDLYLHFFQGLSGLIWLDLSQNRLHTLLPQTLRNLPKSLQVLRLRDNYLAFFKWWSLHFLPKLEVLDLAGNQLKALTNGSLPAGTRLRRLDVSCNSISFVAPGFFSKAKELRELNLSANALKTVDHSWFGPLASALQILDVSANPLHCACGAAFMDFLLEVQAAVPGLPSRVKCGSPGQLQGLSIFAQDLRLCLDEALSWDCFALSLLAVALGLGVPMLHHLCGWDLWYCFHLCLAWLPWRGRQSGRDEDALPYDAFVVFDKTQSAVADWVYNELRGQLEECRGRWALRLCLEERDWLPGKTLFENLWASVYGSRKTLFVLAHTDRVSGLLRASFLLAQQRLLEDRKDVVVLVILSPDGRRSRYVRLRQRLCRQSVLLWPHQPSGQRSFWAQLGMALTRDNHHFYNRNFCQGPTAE
Supply the numeric figure in nM, leaving out any unit text.

// worked examples, IC50 included
INSERT INTO measurements (compound_structure, target, readout_kind, test_value) VALUES
  ('CC(C)N1CCN(c2ccc(-c3ccc4[nH]c(=O)c(-c5ccc(F)cc5)cc4c3)cc2)CC1', 'human TLR9 (Homo sapiens)', 'IC50', 286),
  ('CC(C)N1CCC(c2ccc(-c3ccc4[nH]c(=O)c(-c5cccc(NS(C)(=O)=O)c5)cc4c3)cc2)CC1', 'human TLR9 (Homo sapiens)', 'IC50', 67),
  ('CC(C)Cn1c(=O)c(-c2ccc(S(C)(=O)=O)cc2)cc2cc(-c3ccc(C4CCN(C(C)C)CC4)cc3)ccc21', 'human TLR9 (Homo sapiens)', 'IC50', 400);

Provide only the value of recorded IC50 for CC(C)N1CCN(c2ccc(-c3ccc4[nH]c(=O)c(-c5cn(C)c6ccccc56)cc4c3)cc2)CC1
1160

Provide only the value of recorded IC50 for CC(C)N1CCC(c2ccc(-c3ccc4c(c3)cc(-c3ccc(N(C)C)cc3)c(=O)n4C)cc2)CC1
1430

Provide only the value of recorded IC50 for CCc1c(-c2ccc(S(C)(=O)=O)cc2)c(=O)n(C)c2ccc(-c3ccc(N4CCN(C(C)C)CC4)cc3)cc12
267

Provide only the value of recorded IC50 for COc1ccc(-c2cc3cc(-c4ccc(N5CCN(C(C)C)CC5)cc4)ccc3[nH]c2=O)cc1OC
553

Provide only the value of recorded IC50 for CCc1c(-c2ccc(S(C)(=O)=O)cc2)c(=O)n(C)c2ccc(-c3ccc(C4CCN(C5COC5)CC4)cc3)cc12
2370

Provide only the value of recorded IC50 for CN1CCC(c2ccc(-c3ccc4[nH]c(=O)c(-c5ccc(S(C)(=O)=O)cc5)cc4c3)cc2)CC1
261

Provide only the value of recorded IC50 for CC(C)N1CCN(c2ccc(-c3ccc4c(c3)cc(-c3ccc(S(C)(=O)=O)cc3)c(=O)n4C)cc2)CC1
233

====

Biological target: human TLR8 (Homo sapiens)
Construct: host or cells: HEK-Blue cells
Sequence (Q9NR97 27-1041): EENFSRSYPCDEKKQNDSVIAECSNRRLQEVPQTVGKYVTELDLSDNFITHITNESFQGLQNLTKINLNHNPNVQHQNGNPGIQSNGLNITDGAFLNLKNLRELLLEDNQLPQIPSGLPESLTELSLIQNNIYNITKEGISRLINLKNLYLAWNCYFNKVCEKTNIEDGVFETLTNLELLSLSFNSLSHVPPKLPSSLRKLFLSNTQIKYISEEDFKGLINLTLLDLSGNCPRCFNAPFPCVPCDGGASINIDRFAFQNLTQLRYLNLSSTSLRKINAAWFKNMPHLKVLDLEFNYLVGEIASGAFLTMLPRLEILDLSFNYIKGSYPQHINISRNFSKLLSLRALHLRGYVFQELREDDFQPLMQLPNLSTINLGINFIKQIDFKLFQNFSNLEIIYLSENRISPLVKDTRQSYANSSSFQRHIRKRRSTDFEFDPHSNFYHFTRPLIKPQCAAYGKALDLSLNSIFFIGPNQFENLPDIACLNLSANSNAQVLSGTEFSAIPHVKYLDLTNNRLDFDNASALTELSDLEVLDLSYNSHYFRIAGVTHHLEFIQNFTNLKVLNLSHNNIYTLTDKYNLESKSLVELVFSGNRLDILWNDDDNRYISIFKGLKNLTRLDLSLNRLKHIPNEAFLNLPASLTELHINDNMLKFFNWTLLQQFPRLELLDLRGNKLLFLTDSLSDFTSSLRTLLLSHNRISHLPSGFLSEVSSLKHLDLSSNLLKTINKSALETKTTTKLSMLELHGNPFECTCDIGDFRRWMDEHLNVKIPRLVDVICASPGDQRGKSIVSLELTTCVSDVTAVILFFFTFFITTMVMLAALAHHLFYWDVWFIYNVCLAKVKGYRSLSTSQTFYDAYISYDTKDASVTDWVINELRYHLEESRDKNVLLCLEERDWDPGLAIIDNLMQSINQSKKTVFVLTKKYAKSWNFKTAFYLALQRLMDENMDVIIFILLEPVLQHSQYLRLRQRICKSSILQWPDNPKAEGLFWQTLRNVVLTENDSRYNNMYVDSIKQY
Assay: TLR8 inhibition reporter assay (HEK-Blue cells, SEAP reporter)
Assay type: cell-based
Settings: HEK-Blue cells overexpressing human TLR8; stimulated with R848 15.9 μM; SEAP read after 22 hour; dose range 0.05 nM-50 μM
Experimental: HEK-Blue™-cells (Invivogen) overexpressing human TLR7, TLR8 or TLR9 receptors were used for screening inhibitors of these receptors using an inducible SEAP (secreted embryonic alkaline phosphatase) reporter gene under the control of the IFN-β minimal promoter fused to five NF-κB and AP-1-binding sites. […] The percent inhibition is determined as the % reduction in the HEK-Blue signal present in wells treated with agonist plus DMSO alone compared to wells treated with a known inhibitor.
A collection of compounds and their measured pIC50
# log scale: pIC50 equals minus log10 of the concentration in mol/L

// worked examples, pIC50 included
INSERT INTO results (compound_structure, test_value) VALUES
  ('CC(C)N1CCN(c2ccc(-c3ccc4c(c3)cc(-c3ccc(S(C)(=O)=O)cc3)c(=O)n4C)cc2)CC1', 5.98),
  ('CC(C)N1CCN(c2ccc(-c3ccc4[nH]c(=O)c(-c5ccccc5NS(C)(=O)=O)cc4c3)cc2)CC1', 5.74),
  ('CC(C)N1CCN(c2ccc(-c3ccc4[nH]c(=O)c(-c5ccccc5C(F)(F)F)cc4c3)cc2)CC1', 5.33);

Provide only the value of recorded pIC50 for CCCn1c(=O)c(-c2ccc(S(C)(=O)=O)cc2)cc2cc(-c3ccc(C4CCN(C(C)C)CC4)cc3)ccc21
4.82

====

A collection of compounds and their measured IC50
biological target: human TLR9 (Homo sapiens); test: TLR9 inhibition reporter assay (HEK-Blue cells, SEAP reporter); settings: HEK-Blue cells overexpressing human TLR9; stimulated with ODN2006 5 nM; SEAP read after 22 hour; dose range 0.05 nM-50 μM
Supply the numeric figure in nM, leaving out any unit text.

// worked examples, IC50 included
INSERT INTO assay_data (compound, test_value) VALUES
  ('CS(=O)(=O)Nc1cccc(-c2cc3cc(-c4ccc(C5CCN(C6COC6)CC5)cc4)ccc3[nH]c2=O)c1 [Example 98]', 1430),
  ('CC(C)N1CCN(c2ccc(-c3ccc4[nH]c(=O)c(-c5ccc(N(C)C)cc5)cc4c3)cc2)CC1 [Example 9]', 96),
  ('CC(C)N1CCC(c2ccc(-c3ccc4[nH]c(=O)c(-c5ccc(N(C)C)cc5)cc4c3)cc2)CC1 [Example 88]', 449),
  ('CC(C)N1CCN(c2ccc(-c3ccc4[nH]c(=O)c(-c5ccc(C#N)cc5)cc4c3)cc2)CC1 [Example 12]', 121),
  ('CC(C)N1CCN(c2ccc(-c3ccc4c(c3)cc(-c3ccccc3)c(=O)n4C)cc2)CC1 [Example 58]', 538);

Recall the reported IC50 of CC(C)N1CCN(c2ccc(-c3ccc4[nH]c(=O)c(-c5nn(C)c6ccccc56)cc4c3)cc2)CC1 [Example 35] on human TLR9 (Homo sapiens) and write it down.
314

Recall the reported IC50 of CN1CCC(c2ccc(-c3ccc4c(c3)cc(-c3ccc(S(C)(=O)=O)cc3)c(=O)n4C)cc2)CC1 [Example 78] on human TLR9 (Homo sapiens) and write it down.
286

Recall the reported IC50 of CC(C)N1CCN(c2ccc(-c3ccc4[nH]c(=O)c(-c5ccc(N(C)C6CN(C)C6)cc5)cc4c3)cc2)CC1 [Example 51] on human TLR9 (Homo sapiens) and write it down.
242

Recall the reported IC50 of CC(C)N1CCN(c2ccc(-c3ccc4[nH]c(=O)c(-c5cccc(OC(F)(F)F)c5)cc4c3)cc2)CC1 [Example 46] on human TLR9 (Homo sapiens) and write it down.
781

Recall the reported IC50 of CC(C)N1CCN(c2ccc(-c3ccc4[nH]c(=O)c(-c5ccccn5)cc4c3)cc2)CC1 [Example 6] on human TLR9 (Homo sapiens) and write it down.
79

Recall the reported IC50 of COC(=O)c1ccc(-c2cc3cc(-c4ccc(N5CCN(C(C)C)CC5)cc4)ccc3[nH]c2=O)cc1 [Example 28] on human TLR9 (Homo sapiens) and write it down.
2280

Recall the reported IC50 of CC(C)N1CCN(c2ccc(-c3ccc4[nH]c(=O)c(-c5cccc(C(F)(F)F)c5)cc4c3)cc2)CC1 [Example 45] on human TLR9 (Homo sapiens) and write it down.
734

Recall the reported IC50 of CCc1c(-c2ccc(S(C)(=O)=O)cc2)c(=O)n(C)c2ccc(-c3ccc(C4CCN(C(C)C)CC4)cc3)cc12 [Example 86] on human TLR9 (Homo sapiens) and write it down.
406

Recall the reported IC50 of CC(C)N1CCC(c2ccc(-c3ccc4c(c3)cc(-c3ccc(S(C)(=O)=O)cc3)c(=O)n4CCCO)cc2)CC1 [Example 82] on human TLR9 (Homo sapiens) and write it down.
312

Recall the reported IC50 of CC(C)N1CCC(c2ccc(Nc3ccc4c(c3)cc(-c3ccc(S(C)(=O)=O)cc3)c(=O)n4C)cc2)CC1 [Example 75] on human TLR9 (Homo sapiens) and write it down.
253

Recall the reported IC50 of COc1cccc(-c2cc3cc(-c4ccc(N5CCN(C(C)C)CC5)cc4)ccc3[nH]c2=O)c1 [Example 30] on human TLR9 (Homo sapiens) and write it down.
277

Recall the reported IC50 of CNC(=O)c1ccc(-c2cc3cc(-c4ccc(N5CCN(C(C)C)CC5)cc4)ccc3[nH]c2=O)cc1 [Example 54] on human TLR9 (Homo sapiens) and write it down.
379

Recall the reported IC50 of CC(C)N1CCN(c2ccc(-c3ccc4[nH]c(=O)c(-c5ccccc5NS(C)(=O)=O)cc4c3)cc2)CC1 [Example 29] on human TLR9 (Homo sapiens) and write it down.
275

Recall the reported IC50 of CCc1c(-c2ccc(S(C)(=O)=O)cc2)c(=O)[nH]c2ccc(-c3ccc(N4CCN(C(C)C)CC4)cc3)cc12 [Example 84] on human TLR9 (Homo sapiens) and write it down.
389

Recall the reported IC50 of O=c1[nH]c2ccc(-c3ccc(C4CCN(C5COC5)CC4)cc3)cc2cc1-c1ccc2nccnc2c1 [Example 94] on human TLR9 (Homo sapiens) and write it down.
689

Recall the reported IC50 of CC(C)N1CCC(c2ccc(-c3ccc4[nH]c(=O)c(-c5ccc(S(C)(=O)=O)cc5)cc4c3)cc2)CC1 [Example 71] on human TLR9 (Homo sapiens) and write it down.
140
